# target.or.test.system: UniProtKB O53289
# experiment.notes: Effects of added amino acids on MtSerB2 phosphatase activity
# Format: biochemical, M. tuberculosis
property.name: Activation factor

• O=C(O)[C@@H]1CCCN1 = Inhibition
• N=C(N)NCCC[C@H](N)C(=O)O = Inhibition
• CC(C)C[C@H](N)C(=O)O = Non modulator
• C[C@@H](O)[C@H](N)C(=O)O = Inhibition

Input line: Notebook entry, UniProtKB O53289 assay: Activation factor of CC(C)[C@H](N)C(=O)O = ?
Output line: Inhibition

Input line: Param item: N[C@@H](Cc1c[nH]cn1)C(=O)O
Output line: Inhibition

Input line: What about NC(=O)CC[C@H](N)C(=O)O ?
Output line: Inhibition

Input line: Field entry: N[C@@H](CCC(=O)O)C(=O)O
Output line: Inhibition

----------
# target.or.test.system: MtSerB2 (Mycobacterium tuberculosis)
# experiment.notes: Inhibition of MtSerB2 hydrolysis of L-phosphoserine (malachite green)
# Assay type: biochemical, M. tuberculosis
Structures can show the parent of a compound that is named as a salt.
property.name: Imax (%) SerB2
Express it in %; write the number only.

Input line: What does the data say about its Imax (%) SerB2? Entry: C[N+](C)(C)CCOP(=O)(O)O
Output line: 10

Input line: // repeat for NC(CP(=O)(O)O)C(=O)O (racemic) and report
Output line: 22

Input line: Next entry: C[N+](C)(C)CCOP(=O)([O-])OCC(O)CO (centres unmarked)
Output line: 35

Input line: Request: CN(C)CCCN1c2ccccc2Sc2ccc(Cl)cc21 [Chlorpromazine, Chlorpromazine Hydrochloride]
Output line: 70

Input line: And then N[C@@H](CO)C(=O)O , what is it?
Output line: 65

----------
# target.or.test.system: MtSerB2 (Mycobacterium tuberculosis, UniProt O53289)
# Sequence (O53289 whole entry): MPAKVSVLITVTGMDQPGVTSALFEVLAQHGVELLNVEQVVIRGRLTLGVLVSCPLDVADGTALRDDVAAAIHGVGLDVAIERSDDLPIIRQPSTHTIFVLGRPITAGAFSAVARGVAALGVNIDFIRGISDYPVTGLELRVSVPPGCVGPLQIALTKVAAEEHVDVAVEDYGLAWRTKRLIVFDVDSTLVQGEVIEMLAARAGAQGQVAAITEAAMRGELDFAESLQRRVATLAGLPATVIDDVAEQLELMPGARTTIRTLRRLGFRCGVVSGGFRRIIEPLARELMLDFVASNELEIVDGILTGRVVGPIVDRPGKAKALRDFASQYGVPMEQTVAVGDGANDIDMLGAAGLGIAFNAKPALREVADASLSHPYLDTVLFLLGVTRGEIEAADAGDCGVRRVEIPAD
# experiment.notes: Inhibition of MtSerB2 hydrolysis of L-phosphoserine (malachite green)
# Assay type: biochemical, M. tuberculosis
property.name: IC50 (µM)
Report the figure in µM without appending any unit label.

Input line: IC50 lookup needed for N[C@@H](CO)C(=O)O [L-serine] , thanks.
Output line: 0.78

----------
# target.or.test.system: MtSerB2 (Mycobacterium tuberculosis)
# experiment.notes: Inhibition of MtSerB2 hydrolysis of L-phosphoserine (malachite green)
# Type: biochemical, M. tuberculosis
# conditions.used: read-out: IC50
property.name: IC50

Input line: # query: IC50 of entry [F-].[Na+] [NaF, Sodium fluoride]
Output line: ~3000 µM

----------
Would you kindly list Imax (%) PSPD for each of these compounds?
# target.or.test.system: PSP domain of MtSerB2 (PSPD) (Mycobacterium tuberculosis, UniProt O53289)
# experiment.notes: biochemical
# Set-up: species or system M. tuberculosis
Counter-ions that a name gives are not always drawn.
Answer format: numeric, % implied, no suffix.

Input line: Any idea what Imax (%) PSPD was measured for NC(CP(=O)(O)O)C(=O)O (racemic) ?
Output line: 19

Input line: Try this compound too: C[N+](C)(C)CCOP(=O)([O-])OCC(O)CO (centres unmarked)
Output line: 31

Input line: # iterate: CN(C)CCCN1c2ccccc2Sc2ccc(Cl)cc21 [Chlorpromazine, Chlorpromazine Hydrochloride]
Output line: 95

Input line: And for C=C1[C@@H](O)[C@@H]2O[C@]3(CC[C@H](/C=C/[C@@H](C)[C@@H]4CC(C)=C[C@@]5(O[C@H](C[C@@](C)(O)C(=O)O)CC[C@H]5O)O4)O3)CC[C@H]2O[C@@H]1[C@@H](O)C[C@H](C)[C@H]1O[C@@]2(CCCCO2)CC[C@H]1C ?
Output line: 22

Input line: Also N[C@@H](CP(=O)(O)O)C(=O)O [L- AP3, L-2-amino-3-phosphonopropionate] , if possible.
Output line: 21

Input line: Entry to check: N[C@@H](CO)C(=O)O
Output line: 70

Input line: Same lookup for C[N+](C)(C)CCOP(=O)(O)O , please.
Output line: 14

Input line: Also, [F-].[Na+] [NaF, Sodium fluoride] please.
Output line: 72

----------
# target.or.test.system: PSP domain of MtSerB2 (PSPD) (Mycobacterium tuberculosis)
# experiment.notes: biochemical
# Set-up: species or system M. tuberculosis
# conditions.used: read-out: IC50 (µM) PSPD
property.name: IC50
The reply should consist of the numeric value with the unit placed after it.

Input line: Field request: IC50 | item: [F-].[Na+] [NaF, Sodium fluoride]
Output line: 2780 µM

----------
# target.or.test.system: UniProtKB O53289
# experiment.notes: Effects of added amino acids on MtSerB2 phosphatase activity
# Type: biochemical, M. tuberculosis
Provide the recorded pIC50 for the entries that follow.
pIC50 is defined as minus the log10 of a concentration measured in mol/L.

Input line: Return reported pIC50; argument: C[C@H](N)C(=O)O [Ala]
Output line: 2.42

Input line: Also check N[C@@H](CCC(=O)O)C(=O)O [Glu]
Output line: 3.44

Input line: For NC(=O)CC[C@H](N)C(=O)O [Gln] then?
Output line: 3.36

Input line: Follow-up entry: NCC(=O)O [Gly]
Output line: 3.42

Input line: Next up: N[C@@H](Cc1c[nH]cn1)C(=O)O [His]
Output line: 2.31

Input line: CC(C)[C@H](N)C(=O)O [Val] ?
Output line: 2.44

Input line: Another compound to check: N=C(N)NCCC[C@H](N)C(=O)O [Arg]
Output line: 3.20

Input line: Consider next the compound N[C@@H](CC(=O)O)C(=O)O [Asp] in the same way.
Output line: 2.79

Input line: And then N[C@@H](Cc1c[nH]c2ccccc12)C(=O)O [Trp] , what is it?
Output line: 3.49

Input line: Now the compound C[C@@H](O)[C@H](N)C(=O)O [Thr]
Output line: 2.46

----------
# target.or.test.system: MtSerB2 (Mycobacterium tuberculosis, UniProt O53289)
# experiment.notes: Inhibition of MtSerB2 hydrolysis of L-phosphoserine (malachite green)
# Type: biochemical, M. tuberculosis
# conditions.used: read-out: IC50 (µM) SerB2
Structures can show the parent of a compound that is named as a salt.
property.name: IC50 (µM)
Answer in µM, number only, no unit symbol.

Input line: Which IC50 is reported for this compound? [F-].[Na+] [NaF, Sodium fluoride]
Output line: 3110

Input line: Field entry: CN(C)CCCN1c2ccccc2Sc2ccc(Cl)cc21 [Chlorpromazine, Chlorpromazine Hydrochloride]
Output line: 0.92

----------
# target.or.test.system: MtSerB2 (Mycobacterium tuberculosis, UniProt O53289)
# experiment.notes: Inhibition of MtSerB2 hydrolysis of L-phosphoserine (malachite green)
# Assay type: biochemical, M. tuberculosis
Hi there, I'd appreciate the recorded Imax (%) SerB2 for every entry that follows.
// units = %; emit number, no label

Input line: Can you look up Imax (%) SerB2 on MtSerB2 (Mycobacterium tuberculosis, UniProt O53289) for N[C@@H](CP(=O)(O)O)C(=O)O [L- AP3, L-2-amino-3-phosphonopropionate] ?
Output line: 23

Input line: Same thing, different compound: [F-].[Na+] [NaF, Sodium fluoride]
Output line: 55

Input line: What about C=C1[C@@H](O)[C@@H]2O[C@]3(CC[C@H](/C=C/[C@@H](C)[C@@H]4CC(C)=C[C@@]5(O[C@H](C[C@@](C)(O)C(=O)O)CC[C@H]5O)O4)O3)CC[C@H]2O[C@@H]1[C@@H](O)C[C@H](C)[C@H]1O[C@@]2(CCCCO2)CC[C@H]1C ?
Output line: 14

----------
# target.or.test.system: MtSerB2 (Mycobacterium tuberculosis)
# Type: biochemical, M. tuberculosis
# conditions.used: relative to Mg^2+
property.name: effect of divalent cation on MtSerB2 activity

Example cases with answers are listed next.
- [Ca+2].[Cl-].[Cl-]: deactivates
- [Zn+2]: deactivates
- [Co+2]: deactivates
- [Mn+2]: deactivates

We next turn to a different compound, shown below.
Input line: Find the recorded effect of divalent cation on MtSerB2 activity belonging to [Ni+2] and report it.
Output line: deactivates

----------
# target.or.test.system: MtSerB2 (Mycobacterium tuberculosis)
# experiment.notes: Effects of added amino acids on MtSerB2 phosphatase activity
# Assay type: biochemical, M. tuberculosis
property.name: Activation factor

Reference set, count: 5
* N[C@@H](Cc1ccccc1)C(=O)O | Activation
* N[C@@H](Cc1c[nH]c2ccccc12)C(=O)O | Inhibition
* N[C@@H](Cc1ccc(O)cc1)C(=O)O | Activation
* N[C@@H](CO)C(=O)O | Inhibition
* C[C@H](N)C(=O)O | Inhibition

Input line: Look up Activation factor: NCC(=O)O
Output line: Inhibition

Input line: Please give the result for CC[C@H](C)[C@H](N)C(=O)O too.
Output line: Non modulator

Input line: // next record NC(=O)C[C@H](N)C(=O)O
Output line: Non modulator

Input line: Try the molecule NCCCC[C@H](N)C(=O)O
Output line: Activation

Input line: Subsequent entry: CSCC[C@H](N)C(=O)O
Output line: Non modulator
